As a worked illustration, we turn to IC50 data collected for Human placental aromatase (Homo sapiens, UniProt P11511).

Compound	IC50
COC1=C(c2c(OC)cc3cc4c(c(O)c3c2O)C(=O)OC(C)C4)C(=O)c2c(cc3c(c2O)C(=O)OC(C)C3)C1=O (stereo not drawn) [Compound 5, viomellein]	130 µM
COC1=C(C2=C(OC)C(=O)c3cc4c(c(OC)c3C2=O)C(=O)OC(C)C4)C(=O)c2c(cc3c(c2OC)C(=O)OC(C)C3)C1=O (stereo not drawn) [Compound 13]	16.9 µM
CCOC1=C(C2=C(OCC)C(=O)c3cc4c(c(O)c3C2=O)C(=O)OC(C)C4)C(=O)c2c(cc3c(c2O)C(=O)OC(C)C3)C1=O (stereo not drawn) [Compound 9]	40.7 µM
